target: T1, recombinant mouse Clec4F (CLEC4F/CLECSF13), soluble extracellular domain Ala65-Gly548 (Mus musculus, UniProt P70194); assay: SPR; Biacore T200; 400 RU of recombinant mouse Clec4F coupled to a CM5 chip; nanobodies flown at 30 ul/min at 1-400 nM; 1:1 binding model; details: both partners purified
T1 construct: Clec4F (C-type lectin domain family 4, member F), mouse, soluble extracellular domain Ala65-Gly548; the oligomeric state of the bought protein was not measured here; also called mClec4F; mouse Kupffer cell receptor Clec4F; source: bought: R&D Systems (NS0-derived, mouse myeloma cell line)
T1 sequence (P70194 65-548): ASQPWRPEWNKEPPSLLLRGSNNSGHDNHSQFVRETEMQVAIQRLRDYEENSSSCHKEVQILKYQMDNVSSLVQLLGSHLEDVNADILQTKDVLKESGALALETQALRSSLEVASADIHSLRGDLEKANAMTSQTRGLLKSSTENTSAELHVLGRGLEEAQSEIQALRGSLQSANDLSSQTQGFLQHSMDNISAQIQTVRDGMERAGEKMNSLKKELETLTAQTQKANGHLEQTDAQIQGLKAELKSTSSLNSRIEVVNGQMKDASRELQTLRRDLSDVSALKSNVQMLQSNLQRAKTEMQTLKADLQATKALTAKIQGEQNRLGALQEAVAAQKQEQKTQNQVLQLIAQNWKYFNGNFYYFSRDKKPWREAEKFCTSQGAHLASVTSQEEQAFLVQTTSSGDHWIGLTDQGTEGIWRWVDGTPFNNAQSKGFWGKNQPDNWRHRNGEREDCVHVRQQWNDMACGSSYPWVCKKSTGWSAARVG

>  <BINDER>
Nb11.28 (VHH, also called R3-28; group G11; source: E. coli WK6 periplasm, purified (IMAC Ni-NTA, dialysis)) VHH: QVQLVESGGGLVQAGASLRLSCAASGGTFSNYRMAWFRQAPGKEREFVSLITRSGGSTYYADSVKGRFTISRDNAQNTVSLQMNTLKPEDTAVYTCAATPRFDSGSYYTRTNGYDYWGQGTQVTVSS

>  <koff (s⁻¹)>
0.00654

$$$$
>  <BINDER>
Nb6.19 (VHH, also called R2-19; group G6; source: E. coli WK6 periplasm, purified (IMAC Ni-NTA, dialysis)) VHH: DVQLVESGGGLVQPGGSLRLSCAASGFTLSTYAMRWVRQAPGKGLEWVSDINSGGDVMSYRDSVKGRFTISRDDAKNTLYLQMNSLKPEDTAVYYCTNGWSRGQGTQVTVSS

>  <koff (s⁻¹)>
0.000612

$$$$
>  <BINDER>
Nb6.4 (VHH, also called R3-4; group G6; source: E. coli WK6 periplasm, purified (IMAC Ni-NTA, dialysis)) VHH: QVQLVESGGGLVQPGGSLTLSCAASGFTISNYAMKWDRQAPGKGFEWVSTINSDGDNTSYRDSVKGRFTISRDNAKNTLYLQMNSLKPEDTAVYYCSNGGRRGQGTQVTVSS

>  <koff (s⁻¹)>
0.00231

$$$$
>  <BINDER>
Nb11.20 (VHH, also called R2-20; group G11; source: E. coli WK6 periplasm, purified (IMAC Ni-NTA, dialysis)) VHH: QVQLVESGGGLVQTGGSLRLSCAASGRTVSSYRMGWFRQAPGKEREFVCMITRSGFKTYCNDSVKGRFTISRDVAVNTVNLQMNSLKPEDTADYYCAATERWGTTATMTTANDYDYWGQGTQVTVSS

>  <koff (s⁻¹)>
0.00139

$$$$
